Could you please report measured Kd for the items listed next?
# assaySystem: (NVDP)3(NANP)2 (Plasmodium falciparum)
# protocolDetails: BLI, target on sensor
Enter your answer as a number in nM; do not include the unit.

Lookup: Request the reported Kd associated with AB-007069 (antibody, V domains shown) VH: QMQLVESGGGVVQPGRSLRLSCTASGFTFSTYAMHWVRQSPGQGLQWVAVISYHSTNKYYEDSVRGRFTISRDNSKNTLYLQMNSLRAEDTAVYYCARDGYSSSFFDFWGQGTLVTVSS VL: DIQMTQSPSTLSASVGDRVAITCRASQSISRWLAWYQQQPGKAPKLLMSVASVLESGVPSRFSGSGSGTEFTLTISSLQPDDFATYYCQHYNSYFVTFGQGTKVEIK
Found: 28.7

Lookup: Next: AB-007061 (antibody, V domains shown) VH: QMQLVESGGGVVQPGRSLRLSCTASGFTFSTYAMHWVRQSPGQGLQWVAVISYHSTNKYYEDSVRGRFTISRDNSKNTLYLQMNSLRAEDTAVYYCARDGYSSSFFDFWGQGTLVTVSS VL: DIQMTQSPSTLSASVGDRVAITCRASQSIDRWLAWYQQQPGKAPKLLMSGASVLESGVPSRFSGSGSGTEFTLTISSLQPDDFATYYCQHYNSYFVTFGQGTKVEIK
Found: 5.68

Lookup: Next: AB-007070 (antibody, V domains shown) VH: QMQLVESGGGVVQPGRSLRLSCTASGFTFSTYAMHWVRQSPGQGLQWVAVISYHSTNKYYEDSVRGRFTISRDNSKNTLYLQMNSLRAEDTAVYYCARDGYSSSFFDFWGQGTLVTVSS VL: DIQMTQSPSTLSASVGDRVAITCRASQSISRWLAWYQQQPGKAPKLLMSAASVLESGVPSRFSGSGSGTEFTLTISSLQPDDFATYYCQHYNSYFVTFGQGTKVEIK
Found: 14.4

Lookup: Next: AB-007064 (antibody, V domains shown) VH: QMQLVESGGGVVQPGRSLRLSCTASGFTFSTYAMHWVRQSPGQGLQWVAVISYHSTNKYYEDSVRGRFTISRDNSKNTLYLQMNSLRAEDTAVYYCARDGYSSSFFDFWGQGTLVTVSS VL: DIQMTQSPSTLSASVGDRVAITCRASQSISRWLAWYQQQPGKAPKLLMTGASVLESGVPSRFSGSGSGTEFTLTISSLQPDDFATYYCQHYNSYFVTFGQGTKVEIK
Found: 33.7

Lookup: Next: AB-007033 (antibody, V domains shown) VH: QMQLVESGGGVVQPGRSLRLSCAASGFTFSTYAMHWVRQAPGQGLEWVAVISYHSTNKYYADSVRGRFTISRDNSKNTLYLQMNSLRAEDTAVYYCARDGYSSSFFDFWGQGTLVTVSS VL: DIQMTQSPSTLSASVGDRVTITCRASQSISRWLAWYQQQPGKAPKLLMSGASVLESGVPSRFSGSGSGTEFTLTISSLQPDDFATYYCQHYNSYFVTFGQGTKVEIK
Found: 3.47

Lookup: Next: AB-007056 (antibody, V domains shown) VH: QMQLVESGGGVVQPGRSLRLSCTASGFTFSTYAMHWVRQSPGQGLQWVAVISYHSTNKYYEDSVRGRFTISRDNSKNTLYLQMNSLRAEDTAVYYCARDGYQSSFFDFWGQGTLVTVSS VL: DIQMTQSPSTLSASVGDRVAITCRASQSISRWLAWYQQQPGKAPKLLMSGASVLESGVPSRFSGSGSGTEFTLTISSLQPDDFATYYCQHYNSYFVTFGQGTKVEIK
Found: 24.9

Lookup: Next: AB-007039 (antibody, V domains shown) VH: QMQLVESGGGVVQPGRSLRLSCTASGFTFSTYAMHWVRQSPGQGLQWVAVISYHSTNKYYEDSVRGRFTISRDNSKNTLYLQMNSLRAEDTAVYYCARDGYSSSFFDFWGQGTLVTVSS VL: DIQMTQSPSTLSASVGDRVAITCRASQSISRWLAWYQQQPGKAPKLLMSGASVLESGVPSRFSGSGSGTEFTLTISSLQPDDFATYYCQHYNSYSVTFGQGTKVEIK
Found: 7.26

Lookup: Next: AB-007050 (antibody, V domains shown) VH: QMQLVESGGGVVQPGRSLRLSCTASGFTFSTYAMHWVRQSPGQGLQWVAVISQHSTNKYYEDSVRGRFTISRDNSKNTLYLQMNSLRAEDTAVYYCARDGYSSSFFDFWGQGTLVTVSS VL: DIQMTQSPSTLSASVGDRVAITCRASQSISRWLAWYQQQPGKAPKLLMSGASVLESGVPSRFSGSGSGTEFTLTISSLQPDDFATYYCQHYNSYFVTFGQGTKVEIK
Found: 33.4

Lookup: Next: AB-007067 (antibody, V domains shown) VH: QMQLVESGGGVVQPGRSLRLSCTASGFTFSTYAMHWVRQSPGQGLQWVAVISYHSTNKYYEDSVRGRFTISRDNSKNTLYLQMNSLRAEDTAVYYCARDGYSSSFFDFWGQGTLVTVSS VL: DIQMTQSPSTLSASVGDRVAITCRASQSISRWLAWYQQQPGKAPKLLMSSASVLESGVPSRFSGSGSGTEFTLTISSLQPDDFATYYCQHYNSYFVTFGQGTKVEIK
Found: 34

Lookup: Next: AB-007060 (antibody, V domains shown) VH: QMQLVESGGGVVQPGRSLRLSCTASGFTFSTYAMHWVRQSPGQGLQWVAVISYHSTNKYYEDSVRGRFTISRDNSKNTLYLQMNSLRAEDTAVYYCARDGYSSSYFDFWGQGTLVTVSS VL: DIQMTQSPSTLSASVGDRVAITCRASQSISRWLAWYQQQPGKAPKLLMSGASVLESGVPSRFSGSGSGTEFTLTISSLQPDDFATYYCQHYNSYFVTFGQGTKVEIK
Found: 45.2
